The measurements presented in this section are drawn from the supplement of paper PMC6897291.

System: U-2932
Experiment: growth inhibition by drug alone (1 - RLU/untreated control) (fraction); higher = stronger inhibition
Conditions: 10 nM; time (day): 3; 177Lu-lilotomab satetraxetan 0 ug/ml
Where a name gives a salt, the structure may show the parent alone.
For each record, write down the corresponding growth inhibition by drug alone.
Numbers only.

Below, 3 compounds whose answers are already recorded.
compound	value-reported
CN1CCN(CCOc2cc(OC3CCOCC3)c3c(Nc4c(Cl)ccc5c4OCO5)ncnc3c2)CC1 [Saracatinib (AZD0530)]	0.0465
CNC(=O)c1ccccc1Sc1ccc2c(/C=C/c3ccccn3)n[nH]c2c1 [Axitinib]	-0.00761
Nc1nc(Cl)nc2c1ncn2[C@@H]1O[C@H](CO)[C@@H](O)[C@@H]1F [Clofarabine]	0.0673

// input: 5 compounds below; output: growth inhibition by drug alone for each
1. COc1ccc(CNC(=O)Nc2ncc([N+](=O)[O-])s2)cc1
2. Cn1c(=O)c(F)c(Nc2ccc(I)cc2F)c2c(=O)n(C[C@@H](O)CO)cnc21
3. C#Cc1cccc(Nc2ncnc3cc(OCCOC)c(OCCOC)cc23)c1 [Erlotinib HCl]
4. Cc1nc(-c2ccc(OCC(C)C)c(C#N)c2)sc1C(=O)O [Febuxostat (Uloric)]
5. COc1cc(Nc2ncc(F)c(Nc3ccc4c(n3)N(COP(=O)(O)O)C(=O)C(C)(C)O4)n2)cc(OC)c1OC

Output:
1: -0.00788; 2: 0.14; 3: 0.33; 4: 0.06; 5: -0.000834

// input: 2 compounds below; output: growth inhibition by drug alone for each
1. CN(c1ncccc1CNc1nc(Nc2ccc3c(c2)CC(=O)N3)ncc1C(F)(F)F)S(C)(=O)=O
2. CC(C)c1onc(-c2c(Cl)cccc2Cl)c1COc1ccc(/C=C/c2cccc(C(=O)O)c2)c(Cl)c1

Output:
1. 0.161
2. 0.0964

compound Oc1ccc(Nc2nc(-c3ccc(Cl)cc3)cs2)cc1 , growth inhibition by drug alone observed: 0.0714

----------
For each record, write down the corresponding growth inhibition by drug alone.
Test system: RIVA
Test: growth inhibition by drug alone (1 - RLU/untreated control) (fraction); higher = stronger inhibition
Conditions: 10 nM; time (day): 6; 177Lu-lilotomab satetraxetan 0 ug/ml
Where a name gives a salt, the structure may show the parent alone.
One number for each entry.

compound	target	measurement-label	value-reported
COc1c(C)c2c(c(O)c1C/C=C(\C)CCC(=O)O)C(=O)OC2 [Mycophenolic (Mycophenolate)]	RIVA	growth inhibition by drug alone	-0.0787
COc1cc2ncnc(Nc3ccc(Oc4ccccc4)cc3)c2cc1OC	RIVA	growth inhibition by drug alone	-0.188
Cc1ccc(C(=O)N(CCCN)[C@@H](c2oc3cc(Cl)ccc3c(=O)c2Cc2ccccc2)C(C)C)cc1	RIVA	growth inhibition by drug alone	0.967

// input: 4 compounds below; output: growth inhibition by drug alone for each
1. CN(N=O)C(=O)N[C@@H](C=O)[C@@H](O)[C@H](O)[C@H](O)CO [Streptozotocin (Zanosar)]
2. CCCCc1nc2cc(/C=C/C(=O)NO)ccc2n1CCN(CC)CC [SB939 (Pracinostat)]
3. CC/C(=C(\c1ccccc1)c1ccc(OCCN(C)C)cc1)c1ccccc1 [Tamoxifen Citrate (Nolvadex)]
4. Nc1nc(Cl)nc2c1ncn2[C@@H]1O[C@H](CO)[C@@H](O)[C@@H]1F [Clofarabine]

Output:
-0.472
0.0437
-0.0872
-0.383

Query O=C(c1ccc(OCCN2CCCCC2)cc1)c1c(-c2ccc(O)cc2)sc2cc(O)ccc12 [Evista (Raloxifene Hydrochloride)] on RIVA; growth inhibition by drug alone returned: -0.472

----------
Test system: RIVA
Experiment: growth inhibition by drug plus 177Lu-lilotomab satetraxetan (1 - RLU/untreated control) (fraction); higher = stronger inhibition
Settings: 10 nM; time (day): 3; 177Lu-lilotomab satetraxetan 0.5 ug/ml
Where a name gives a salt, the structure may show the parent alone.
Short version: growth inhibition by drug plus 177Lu-lilotomab satetraxetan at least 0.5 is yes, less is no.

A selection of reference data follows.
compound	label
COC(=O)Nc1nc2cc(C(=O)c3cccs3)ccc2[nH]1	no
CC[C@H](CO)Nc1nc(NCc2ccccc2)c2ncn(C(C)C)c2n1 [Roscovitine (Seliciclib, CYC202)]	no
Cc1ccc(S(=O)(=O)C=CC#N)cc1	no
Cc1nnc(C(C)C)n1C1C[C@H]2CC[C@@H](C1)N2CC[C@H](NC(=O)C1CCC(F)(F)CC1)c1ccccc1 (stereo in doubt)	yes
CCn1c(-c2nonc2N)nc2cnc(Oc3cccc(NC(=O)c4ccc(OCCN5CCOCC5)cc4)c3)cc21	no

Input: Test whether the compound Oc1ccc(Nc2nc(-c3ccc(Cl)cc3)cs2)cc1 records growth inhibition by drug plus 177Lu-lilotomab satetraxetan of 0.5 or higher.
Output: no

Input: Test whether the compound C[C@@H]1C[C@H]2[C@@H]3CCC4=CC(=O)C=C[C@]4(C)[C@@]3(F)[C@@H](O)C[C@]2(C)[C@@]1(O)C(=O)CO records growth inhibition by drug plus 177Lu-lilotomab satetraxetan of 0.5 or higher.
Output: no

Input: Test whether the compound CN(N=O)C(=O)N[C@@H](C=O)[C@@H](O)[C@H](O)[C@H](O)CO [Streptozotocin (Zanosar)] records growth inhibition by drug plus 177Lu-lilotomab satetraxetan of 0.5 or higher.
Output: no

Input: Test whether the compound CN1CCN(c2cccc(Nc3nc4c(-c5ccc(S(C)(=O)=O)cc5)cccn4n3)c2)CC1 records growth inhibition by drug plus 177Lu-lilotomab satetraxetan of 0.5 or higher.
Output: no

Input: Test whether the compound CNNCc1ccc(C(=O)NC(C)C)cc1 [Procarbazine hydrochloride (Matulane)] records growth inhibition by drug plus 177Lu-lilotomab satetraxetan of 0.5 or higher.
Output: yes

Input: Test whether the compound CN1CCC(CNc2ccc3ncc(-c4cccc(OC(F)(F)F)c4)n3n2)CC1 [SGI-1776 free base] records growth inhibition by drug plus 177Lu-lilotomab satetraxetan of 0.5 or higher.
Output: no

Input: Test whether the compound Cc1cccc(-c2[nH]c(C(C)(C)C)nc2-c2ccc3nccnc3c2)n1 records growth inhibition by drug plus 177Lu-lilotomab satetraxetan of 0.5 or higher.
Output: yes

----------
System: RIVA
Test: growth inhibition by drug plus 177Lu-lilotomab satetraxetan (1 - RLU/untreated control) (fraction); higher = stronger inhibition
Conditions: 10 nM; time (day): 3; 177Lu-lilotomab satetraxetan 0.5 ug/ml
Where a name gives a salt, the structure may show the parent alone.
For each record, write down the corresponding growth inhibition by drug plus 177Lu-lilotomab satetraxetan.
Numbers only.

Below, 5 molecules whose answers are already recorded.
molecule	value-reported
CCN(CC)CCNC(=O)c1c(C)[nH]c(/C=C2\C(=O)Nc3ccc(F)cc32)c1C [Sunitinib Malate (Sutent)]	0.291
Nc1cccc2c1C(=O)N(C1CCC(=O)NC1=O)C2=O (centres undefined) [Pomalidomide]	0.434
C[C@H](NC(=O)Cc1cc(F)cc(F)c1)C(=O)N[C@@H]1C(=O)N(C)c2ccccc2-c2ccccc21	0.291
CO[C@H]1/C=C\C=C(/C)C(=O)NC2=CC(=O)C(NCCN(C)C)=C(C[C@@H](C)C[C@H](OC)[C@H](O)[C@@H](C)/C=C(\C)[C@@H]1OC(N)=O)C2=O [17-DMAG HCl (Alvespimycin)]	0.602
C#CCN(C)CC1=Cc2ccccc2Oc2ccccc21	0.602

// input: 3 molecules below; output: growth inhibition by drug plus 177Lu-lilotomab satetraxetan for each
1. Cc1[nH]c(/C=C2\C(=O)Nc3ccc(S(=O)(=O)Cc4c(Cl)cccc4Cl)cc32)c(C)c1C(=O)N1CCC[C@@H]1CN1CCCC1
2. CN1CCN(c2nc(C3=C(c4c[nH]c5ccccc45)C(=O)NC3=O)c3ccccc3n2)CC1 [Sotrastaurin (AEB071)]
3. COc1ccc(COc2cc3oc(=O)c4cc(C(C)O)ccc4c3cc2OC)cc1 (centres undefined) [Palomid 529]

Output:
1: 0.279; 2: 0.535; 3: 0.337

molecule CC(=O)[C@]1(O)Cc2c(O)c3c(c(O)c2[C@@H](O[C@H]2C[C@H](N)[C@H](O)[C@H](C)O2)C1)C(=O)c1ccccc1C3=O [Idarubicin HCl] , growth inhibition by drug plus 177Lu-lilotomab satetraxetan observed: 0.924

----------
System: U-2932
Assay: growth inhibition by drug alone (1 - RLU/untreated control) (fraction); higher = stronger inhibition
Conditions: 10 nM; time (day): 4; 177Lu-lilotomab satetraxetan 0 ug/ml
measurement-label: growth inhibition by drug alone
Answers are plain numbers.

Below, 5 molecules whose answers are already recorded.
molecule	measurement-label	value-reported
Nc1nc(F)nc2c1ncn2[C@@H]1O[C@H](CO)[C@@H](O)[C@@H]1O [Fludarabine (Fludara)]	growth inhibition by drug alone	0.031
Cc1ccc(Nc2nccc(N(C)c3ccc4c(C)n(C)nc4c3)n2)cc1S(N)(=O)=O [Pazopanib]	growth inhibition by drug alone	0.059
CN(C)CCCN=c1c2ccccc2n(C)c2[nH]c(=O)n(C)c(=O)c12	growth inhibition by drug alone	0.0704
CCC(CC)CC1(C(=O)Nc2ccccc2SC(=O)C(C)C)CCCCC1	growth inhibition by drug alone	0.00234
CN1CCN(c2cccc(Nc3nc4c(-c5ccc(S(C)(=O)=O)cc5)cccn4n3)c2)CC1	growth inhibition by drug alone	0.0428

// input: 4 molecules below; output: growth inhibition by drug alone for each
1. OC[C@H]1O[C@@H](n2cnc3c2N=CNC[C@H]3O)C[C@@H]1O [Pentostatin]
2. COc1ccc(C2=N[C@@H](c3ccc(Cl)cc3)[C@@H](c3ccc(Cl)cc3)N2C(=O)N2CCNC(=O)C2)c(OC(C)C)c1 [Nutlin-3]
3. COc1ccccc1OCC(O)CN1CCN(CC(=O)Nc2c(C)cccc2C)CC1 (configuration not stated) [Ranolazine (Ranexa)]
4. O=c1[nH]nc(Sc2ncc([N+](=O)[O-])s2)n1-c1ccc2c(c1)OCCO2

Output:
1: 0.0372; 2: -0.0423; 3: 0.0222; 4: -0.0355

// input: 3 molecules below; output: growth inhibition by drug alone for each
1. Cn1cnc(N)c2ncnc1-2 [3-Methyladenine]
2. CCCCCCCc1ccc(CCc2cccc(O)c2C(=O)O)cc1
3. COc1ccc(-c2ccc3c(N4CCOCC4)nc(N4C[C@@H](C)O[C@@H](C)C4)nc3n2)cc1CO

Output:
1: 0.0365; 2: -0.0102; 3: 0.133
